Experiment: collision cross section in nitrogen (drift tube, single-field); higher = larger gas-phase ion size;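 further: chemical standards at 10 µM analysed by drift tube IMS-QTOF MS in about 3.95 torr nitrogen, mean of duplicate injections differing ≤1%, mass error below 10 ppm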
Settings: ion type: [M+Na]; ion source: ESI; ion mode: Positive
Readout label: collision cross section in nitrogen (Å²)
Answers are plain numbers, in Å².

Some molecules with recorded collision cross section in nitrogen:
CC[C@@H]1C[C@H](N(Cc2cc(C(F)(F)F)cc(C(F)(F)F)c2)C(C)=O)c2cc(C(F)(F)F)ccc2N1C(=O)OC(C)C | 233.5
COc1nn(CSP(=S)(OC)OC)c(=O)s1 [Methidathion] | 163.4
OC[C@@H](O)[C@@H](O[C@@H]1O[C@H](CO)[C@H](O)[C@H](O)[C@H]1O)[C@H](O)[C@@H](O)CO [D-Lactitol monohydrate] | 175.3

Returns the measured collision cross section in nitrogen for the input molecule. Input: C=C(C)[C@H]1Cc2c(ccc3c2O[C@@H]2COc4cc(OC)c(OC)cc4[C@@H]2C3=O)O1 [Rotenone]
207.3
